Attribution: the kinase profiling compilation of Christmann-Franck et al. (2016)

- TEST SYSTEM: MAP4K4 (human) (UniProt O95819)
- Sequence (O95819 whole entry, looked up): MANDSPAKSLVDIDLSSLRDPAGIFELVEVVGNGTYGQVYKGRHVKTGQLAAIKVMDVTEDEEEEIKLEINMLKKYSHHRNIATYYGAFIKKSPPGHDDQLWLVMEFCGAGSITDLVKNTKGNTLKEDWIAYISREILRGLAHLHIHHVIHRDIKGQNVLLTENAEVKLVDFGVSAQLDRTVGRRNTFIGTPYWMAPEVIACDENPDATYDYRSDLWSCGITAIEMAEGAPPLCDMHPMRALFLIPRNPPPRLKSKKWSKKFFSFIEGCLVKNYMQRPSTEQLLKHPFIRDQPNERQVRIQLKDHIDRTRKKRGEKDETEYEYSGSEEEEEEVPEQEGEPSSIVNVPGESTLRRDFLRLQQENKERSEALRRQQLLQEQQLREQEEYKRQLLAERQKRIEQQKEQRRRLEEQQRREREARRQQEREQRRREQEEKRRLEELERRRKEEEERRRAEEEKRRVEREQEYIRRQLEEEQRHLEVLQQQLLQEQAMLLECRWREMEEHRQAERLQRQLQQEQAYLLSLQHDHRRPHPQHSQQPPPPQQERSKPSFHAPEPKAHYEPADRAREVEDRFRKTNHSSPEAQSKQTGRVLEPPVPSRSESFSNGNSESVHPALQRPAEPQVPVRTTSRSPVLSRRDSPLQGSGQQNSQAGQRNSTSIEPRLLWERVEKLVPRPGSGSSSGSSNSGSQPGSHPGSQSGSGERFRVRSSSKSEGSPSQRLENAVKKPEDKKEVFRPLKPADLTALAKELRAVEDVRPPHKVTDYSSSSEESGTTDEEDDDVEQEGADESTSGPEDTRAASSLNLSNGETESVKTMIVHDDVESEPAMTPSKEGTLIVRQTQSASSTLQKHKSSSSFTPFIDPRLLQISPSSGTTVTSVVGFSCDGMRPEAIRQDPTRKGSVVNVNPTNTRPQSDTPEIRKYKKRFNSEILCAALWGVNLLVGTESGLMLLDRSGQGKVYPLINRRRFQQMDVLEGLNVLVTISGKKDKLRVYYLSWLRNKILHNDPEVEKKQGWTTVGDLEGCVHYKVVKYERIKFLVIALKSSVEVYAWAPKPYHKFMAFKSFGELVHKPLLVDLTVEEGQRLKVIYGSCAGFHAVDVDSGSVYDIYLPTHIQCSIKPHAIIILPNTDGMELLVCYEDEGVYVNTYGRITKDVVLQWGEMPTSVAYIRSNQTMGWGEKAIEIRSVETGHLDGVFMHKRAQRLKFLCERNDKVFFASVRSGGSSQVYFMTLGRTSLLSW
- PROTOCOL SUMMARY: KINOMEscan competition binding
- CONDITION DETAILS: compound 10.0 µM
In this section we review reported kinase still bound, per cent of control values for a set of compounds.
QUANTITY KIND: kinase still bound, per cent of control (%)

| CHEMICAL STRUCTURE | ASSAY RESULT |
| --- | --- |
| Cc1cc([C@@H](C)Nc2ccccc2C(=O)O)c2nc(N3CCOCC3)cc(=O)n2c1 | 97 |
| COc1cc(C(=O)NC2CCN(C)CC2)ccc1Nc1ncc2c(n1)N(C1CCCC1)CCC(=O)N2C(C)C | 100 |
| C=CC(=O)Nc1cccc(Nc2nc(N[C@H]3CC[C@H](N(C)C)CC3)nc3c2ncn3C(C)C)c1 | 53 |
| COc1cc(N2CCN(C)CC2)ccc1Nc1nc(N)c(C(=O)c2c(Cl)cccc2Cl)s1 | 76 |

---

- TEST SYSTEM: LRRK2 (human) (UniProt Q5S007)
- Sequence (Q5S007 whole entry, looked up): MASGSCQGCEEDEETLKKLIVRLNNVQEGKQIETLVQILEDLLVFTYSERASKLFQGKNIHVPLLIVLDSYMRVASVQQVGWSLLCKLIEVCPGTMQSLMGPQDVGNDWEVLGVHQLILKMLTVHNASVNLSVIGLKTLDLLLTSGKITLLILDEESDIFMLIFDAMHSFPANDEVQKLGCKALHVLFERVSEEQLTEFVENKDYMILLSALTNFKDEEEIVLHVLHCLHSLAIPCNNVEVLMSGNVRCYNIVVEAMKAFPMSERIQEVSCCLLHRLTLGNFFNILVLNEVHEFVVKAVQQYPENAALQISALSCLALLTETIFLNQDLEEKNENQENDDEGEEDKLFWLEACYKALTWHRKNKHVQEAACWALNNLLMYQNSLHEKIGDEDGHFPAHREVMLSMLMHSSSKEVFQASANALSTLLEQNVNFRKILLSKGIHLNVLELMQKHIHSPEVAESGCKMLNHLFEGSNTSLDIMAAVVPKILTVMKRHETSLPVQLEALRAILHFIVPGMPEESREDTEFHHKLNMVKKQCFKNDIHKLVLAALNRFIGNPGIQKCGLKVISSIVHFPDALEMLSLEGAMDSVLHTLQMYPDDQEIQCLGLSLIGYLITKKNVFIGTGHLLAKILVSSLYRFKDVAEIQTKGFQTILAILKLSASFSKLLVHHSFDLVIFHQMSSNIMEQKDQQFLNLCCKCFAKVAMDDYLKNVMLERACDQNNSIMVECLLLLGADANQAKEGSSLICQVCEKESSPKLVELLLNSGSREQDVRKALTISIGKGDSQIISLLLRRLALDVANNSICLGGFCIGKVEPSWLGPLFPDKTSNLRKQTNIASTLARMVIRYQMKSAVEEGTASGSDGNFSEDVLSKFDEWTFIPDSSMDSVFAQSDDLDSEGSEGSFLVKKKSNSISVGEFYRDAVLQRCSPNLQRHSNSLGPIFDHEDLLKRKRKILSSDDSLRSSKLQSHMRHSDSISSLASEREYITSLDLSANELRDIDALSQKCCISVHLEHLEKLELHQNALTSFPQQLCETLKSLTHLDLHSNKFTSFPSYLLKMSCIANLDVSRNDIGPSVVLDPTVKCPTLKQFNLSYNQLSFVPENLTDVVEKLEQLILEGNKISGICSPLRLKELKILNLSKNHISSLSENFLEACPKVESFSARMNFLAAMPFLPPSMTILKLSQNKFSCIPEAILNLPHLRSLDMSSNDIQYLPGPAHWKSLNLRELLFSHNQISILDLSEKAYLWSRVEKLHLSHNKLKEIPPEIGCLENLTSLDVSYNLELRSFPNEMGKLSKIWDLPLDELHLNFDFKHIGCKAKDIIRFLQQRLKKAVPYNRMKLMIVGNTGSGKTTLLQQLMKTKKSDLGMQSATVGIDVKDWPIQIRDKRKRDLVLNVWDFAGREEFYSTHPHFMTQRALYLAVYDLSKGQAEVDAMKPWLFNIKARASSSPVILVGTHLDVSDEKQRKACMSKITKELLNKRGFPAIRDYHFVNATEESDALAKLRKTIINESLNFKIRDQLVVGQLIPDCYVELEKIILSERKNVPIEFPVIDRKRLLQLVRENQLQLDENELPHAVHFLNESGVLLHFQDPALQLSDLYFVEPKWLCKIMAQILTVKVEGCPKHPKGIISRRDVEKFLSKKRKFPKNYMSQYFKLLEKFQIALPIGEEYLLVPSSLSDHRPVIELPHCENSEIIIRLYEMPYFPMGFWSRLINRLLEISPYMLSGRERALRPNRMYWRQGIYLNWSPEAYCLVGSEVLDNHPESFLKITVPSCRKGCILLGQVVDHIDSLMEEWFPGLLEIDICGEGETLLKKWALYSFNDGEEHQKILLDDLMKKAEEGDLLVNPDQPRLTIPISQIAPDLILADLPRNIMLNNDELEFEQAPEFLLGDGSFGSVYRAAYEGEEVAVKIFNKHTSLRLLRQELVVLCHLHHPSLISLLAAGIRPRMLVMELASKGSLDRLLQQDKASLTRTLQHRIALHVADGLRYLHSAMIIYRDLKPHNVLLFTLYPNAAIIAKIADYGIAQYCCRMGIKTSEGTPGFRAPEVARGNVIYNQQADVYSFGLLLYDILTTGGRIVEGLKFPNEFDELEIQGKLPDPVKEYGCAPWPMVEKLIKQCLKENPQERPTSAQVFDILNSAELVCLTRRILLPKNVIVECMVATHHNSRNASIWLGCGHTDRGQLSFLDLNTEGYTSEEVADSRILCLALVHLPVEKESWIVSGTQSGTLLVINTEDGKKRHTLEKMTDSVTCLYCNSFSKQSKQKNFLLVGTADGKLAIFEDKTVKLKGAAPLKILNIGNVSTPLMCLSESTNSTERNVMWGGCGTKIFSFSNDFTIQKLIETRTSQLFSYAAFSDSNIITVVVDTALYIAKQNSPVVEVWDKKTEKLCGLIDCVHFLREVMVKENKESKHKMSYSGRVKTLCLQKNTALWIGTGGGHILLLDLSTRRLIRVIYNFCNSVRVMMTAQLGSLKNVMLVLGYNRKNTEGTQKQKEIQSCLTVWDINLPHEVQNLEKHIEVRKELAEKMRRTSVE
- PROTOCOL SUMMARY: KINOMEscan competition binding
- CONDITION DETAILS: compound 10.0 µM
Parameter: kinase still bound, per cent of control. Scope: all listed entries.

| CHEMICAL STRUCTURE | kinase still bound, per cent of control, % |
| --- | --- |
| O=C(O)c1ccc(Nc2ncc3c(n2)-c2ccc(Cl)cc2C(c2c(F)cccc2F)=NC3)cc1 | 82 |
| O=C(NC1CC1)c1cccc(-c2ccc3c(NC(=O)C4CC4)n[nH]c3c2)c1 | 100 |
| Nc1ccc(-c2ccc3ncc4ccc(=O)n(-c5cccc(C(F)(F)F)c5)c4c3c2)cn1 | 80 |
| Cc1cc([C@@H](C)Nc2ccccc2C(=O)O)c2nc(N3CCOCC3)cc(=O)n2c1 | 100 |
| Cc1ccc2nc(NCCN)c3ncc(C)n3c2c1 | 97 |
| O=C(NOC[C@H](O)CO)c1ccc(F)c(F)c1Nc1ccc(I)cc1F | 86 |
| N#Cc1c(NC(=O)c2cccc3ccccc23)sc2c1CCCC2 | 94 |
| CN(C)C/C=C/C(=O)Nc1cccc(Nc2ncc3c(n2)N(C)c2ccccc2C(=O)N3C)c1 | 31 |
| C=CC(=O)Nc1cccc(Nc2nc(N[C@H]3CC[C@H](N(C)C)CC3)nc3c2ncn3C(C)C)c1 | 61 |
| O=C1Nc2ccc(I)cc2/C1=C/c1cc(Br)c(O)c(Br)c1 | 11 |
| C=CC(=O)Nc1cc(NC(=O)c2ccc(C)c(NC(=O)c3ccno3)c2)cc(C(F)(F)F)c1 | 89 |

---

- TEST SYSTEM: CSNK1A1 (human)
- PROTOCOL SUMMARY: KINOMEscan competition binding
- CONDITION DETAILS: compound 10.0 µM
QUANTITY KIND: kinase still bound, per cent of control (%)

| CHEMICAL STRUCTURE | ASSAY RESULT |
| --- | --- |
| CCCS(=O)(=O)Nc1ccc(F)c(C(=O)c2c[nH]c3ncc(-c4ccc(Cl)cc4)cc23)c1F | 90 |
| C=CC(=O)Nc1cccc(Nc2nc(N[C@H]3CC[C@H](N(C)C)CC3)nc3c2ncn3C(C)C)c1 | 0.65 |
| C=CC(=O)Nc1cc(NC(=O)c2ccc(C)c(NC(=O)c3ccno3)c2)cc(C(F)(F)F)c1 | 100 |
